src = patent US9839642B2

TARGET_DESC: IMP-1 (Serratia marcescens, UniProt P52699)
Sequence (P52699 19-246, looked up, species assumed): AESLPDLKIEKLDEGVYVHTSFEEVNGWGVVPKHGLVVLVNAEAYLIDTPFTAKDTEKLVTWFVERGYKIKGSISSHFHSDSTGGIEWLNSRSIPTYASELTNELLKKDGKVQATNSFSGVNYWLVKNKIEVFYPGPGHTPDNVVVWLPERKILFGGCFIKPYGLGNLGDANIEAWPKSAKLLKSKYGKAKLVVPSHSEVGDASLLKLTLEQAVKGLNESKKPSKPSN
TEST_METHOD_NOTES: Enzyme activity: determination of IC50, fluorescence assay with CCF2-FA substrate
Type: biochemical
MEASUREMENT_CONTEXT: enzyme 2 pM, CCF2-FA 1.25 μM, 2 hours at 25° C.; read-out: IMP1 IC50
Parameter: pIC50. Scope: all listed entries.
Reminder that pIC50 is minus the log10 of a molar concentration.

Past entries and their recorded results:
Challenge: For IMP-1 (Serratia marcescens, UniProt P52699), give the measured pIC50 of the entry "CC(C)C[C@H](C(=O)O)[C@H](Cc1ccc(C2CCNCC2)cc1)c1nnn[nH]1"
Response given: 7.14

Challenge: For IMP-1 (Serratia marcescens, UniProt P52699), give the measured pIC50 of the entry CCC[C@H](C(=O)O)[C@H](Cc1ccc(-c2cccc(C3CCCNC3)c2)cc1)c1nn[nH]n1 (some centres unmarked)
Response given: 6.96

Challenge: For IMP-1 (Serratia marcescens, UniProt P52699), give the measured pIC50 of the entry "CC(C)[C@H](C(=O)O)[C@H](Cc1ccc(-c2ccc(CN)cc2)cc1)c1nnn[nH]1"
Response given: 6.96

Challenge: For IMP-1 (Serratia marcescens, UniProt P52699), give the measured pIC50 of the entry "CC(C)[C@H](C(=O)O)[C@H](Cc1ccc(-c2cnc(NCCO)nc2)cc1)c1nnn[nH]1"
Response given: 7.00

---
Challenge: For IMP-1 (Serratia marcescens, UniProt P52699), give the measured pIC50 of the entry "O=C(O)[C@@H](C1CCCC1)[C@H](Cc1ccccc1)c1nnn[nH]1"
Response given: 6.96
